System: 233499-124-R-J3-PDC complex spheroid viability
Test: Anticancer human tumor 233499-124-R-J3-PDC patient-derived colon adenocarcinoma cell line growth inhibition [CLK]; active = viability on the fitted dose curve at most 10% of control; inactive = the rest
Settings: second compound 0.1 µM; first compound 3.16 µM
Possible outcomes: 1 for active, 0 for inactive

[[record]]
compound = "CCCS(=O)(=O)Nc1ccc(F)c(C(=O)c2c[nH]c3ncc(-c4ccc(Cl)cc4)cc23)c1F + CN1CCN(c2cc(C(=O)Nc3cc4cc(-c5cnn(C)c5)ccc4cn3)ccn2)CC1"
class = 0

[[record]]
compound = "Nc1ccccc1NC(=O)c1ccc(CNC(=O)OCc2cccnc2)cc1 + CN1CCN(c2cc(C(=O)Nc3cc4cc(-c5cnn(C)c5)ccc4cn3)ccn2)CC1"
class = 1

[[record]]
compound = "O=C(c1cc(Cc2n[nH]c(=O)c3ccccc23)ccc1F)N1CCN(C(=O)C2CC2)CC1 + CN1CCN(c2cc(C(=O)Nc3cc4cc(-c5cnn(C)c5)ccc4cn3)ccn2)CC1"
class = 0

[[record]]
compound = "CC1COCCN1c1cc(C2(S(C)(=N)=O)CC2)nc(-c2ccnc3[nH]ccc23)n1 (stereo not given) + CNC(=O)c1ccc(Nc2nc(OC3CCCC3)c3c(-c4ccc5nc(C)oc5c4)c[nH]c3n2)c(OC)c1"
class = 0

[[record]]
compound = "CC(Nc1ccc2c(c1)OCCn1cc(N3C(=O)OCC3C(F)F)nc1-2)C(N)=O (stereo not given) + CNC(=O)c1ccc(Nc2nc(OC3CCCC3)c3c(-c4ccc5nc(C)oc5c4)c[nH]c3n2)c(OC)c1"
class = 0


---

Test system: 233499-124-R-J3-PDC complex spheroid viability
Assay: Anticancer human tumor 233499-124-R-J3-PDC cell line growth inhibition [CLK]; active means viability on the fitted dose curve at most 10% of control; inactive means the rest;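 also: spheroids exposed to the drug combinations for seven days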
Settings: second compound 10 µM; first compound 0.3 µM
Labels: T (active), F (inactive)

[[record]]
compound = "CC(C)CC(NC(=O)C(Cc1ccccc1)NC(=O)c1cnccn1)B(O)O (stereo not drawn) + CNC(=O)c1ccc(Nc2nc(OC3CCCC3)c3c(-c4ccc5nc(C)oc5c4)c[nH]c3n2)c(OC)c1"
measured_on = "233499-124-R-J3-PDC complex spheroid viability"
class = "T"

[[record]]
compound = "C=CC(=O)Nc1cc(Nc2nccc(-c3cn(C)c4ccccc34)n2)c(OC)cc1N(C)CCN(C)C + CN1CCN(c2cc(C(=O)Nc3cc4cc(-c5cnn(C)c5)ccc4cn3)ccn2)CC1"
measured_on = "233499-124-R-J3-PDC complex spheroid viability"
class = "T"

[[record]]
compound = "NC(=O)C(=Cn1cnc(-c2cc(C(F)(F)F)cc(C(F)(F)F)c2)n1)c1cncnc1 + CNC(=O)c1ccc(Nc2nc(OC3CCCC3)c3c(-c4ccc5nc(C)oc5c4)c[nH]c3n2)c(OC)c1"
measured_on = "233499-124-R-J3-PDC complex spheroid viability"
class = "F"


---

Tested on: 233499-124-R-J3-PDC complex spheroid viability
Test: Anticancer human tumor 233499-124-R-J3-PDC cell line growth inhibition [CLK];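 also: spheroids exposed to the drug combinations for seven days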
Details: curve of first compound; second compound 0.1 µM
pIC50: −log10 of the molar value.
Each entry below lists one item and its recorded pIC50 value.
Measurement Kind: pIC50

[[record]]
compound = "CCN1CCN(Cc2ccc(Nc3ncc(F)c(-c4cc(F)c5nc(C)n(C(C)C)c5c4)n3)nc2)CC1 + CNC(=O)c1ccc(Nc2nc(OC3CCCC3)c3c(-c4ccc5nc(C)oc5c4)c[nH]c3n2)c(OC)c1"
val = "< 6.00"

[[record]]
compound = "C=C(F)C(=O)N1CCN(c2nc(OCC3CCCN3C)nc3c2CCN(c2cccc4cccc(Cl)c24)C3)CC1CC#N (stereo not given) + CN1CCN(c2cc(C(=O)Nc3cc4cc(-c5cnn(C)c5)ccc4cn3)ccn2)CC1"
val = "< 5.00"

[[record]]
compound = "O=C(c1cc(Cc2n[nH]c(=O)c3ccccc23)ccc1F)N1CCN(C(=O)C2CC2)CC1 + CN1CCN(c2cc(C(=O)Nc3cc4cc(-c5cnn(C)c5)ccc4cn3)ccn2)CC1"
val = "< 5.00"

[[record]]
compound = "O=C(c1cc(Cc2n[nH]c(=O)c3ccccc23)ccc1F)N1CCN(C(=O)C2CC2)CC1 + CNC(=O)c1ccc(Nc2nc(OC3CCCC3)c3c(-c4ccc5nc(C)oc5c4)c[nH]c3n2)c(OC)c1"
val = "< 5.00"

[[record]]
compound = "COc1cccc2c1C(=O)c1c(O)c3c(c(O)c1C2=O)CC(O)(C(=O)CO)CC3OC1CC(N)C(O)C(C)O1 (stereo not given) + CN1CCN(c2cc(C(=O)Nc3cc4cc(-c5cnn(C)c5)ccc4cn3)ccn2)CC1"
val = 5.75


---

Test system: 233499-124-R-J3-PDC complex spheroid viability
Test: Anticancer human tumor 233499-124-R-J3-PDC cell line growth inhibition [CLK]; active = viability on the fitted dose curve at most 10% of control; inactive = the rest;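 also: spheroids exposed to the drug combinations for seven days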
Conditions: second compound 3.16 µM; first compound 1 µM
Labels: active, inactive

[[record]]
compound = "C#Cc1c(F)ccc2cc(O)cc(-c3ncc4c(N5CC6CCC(C5)N6)nc(OCC56CCCN5CC(F)C6)nc4c3F)c12 (stereo not given) + CN1CCN(c2cc(C(=O)Nc3cc4cc(-c5cnn(C)c5)ccc4cn3)ccn2)CC1"
measured_on = "233499-124-R-J3-PDC complex spheroid viability"
class = "active"

[[record]]
compound = "CCN1CCN(Cc2ccc(Nc3ncc(F)c(-c4cc(F)c5nc(C)n(C(C)C)c5c4)n3)nc2)CC1 + CN1CCN(c2cc(C(=O)Nc3cc4cc(-c5cnn(C)c5)ccc4cn3)ccn2)CC1"
measured_on = "233499-124-R-J3-PDC complex spheroid viability"
class = "active"

[[record]]
compound = "COc1cccc2c1C(=O)c1c(O)c3c(c(O)c1C2=O)CC(O)(C(=O)CO)CC3OC1CC(N)C(O)C(C)O1 (stereo not given) + CNC(=O)c1ccc(Nc2nc(OC3CCCC3)c3c(-c4ccc5nc(C)oc5c4)c[nH]c3n2)c(OC)c1"
measured_on = "233499-124-R-J3-PDC complex spheroid viability"
class = "active"

[[record]]
compound = "CC1(C)CCC(CN2CCN(c3ccc(C(=O)NS(=O)(=O)c4ccc(NCC5CCOCC5)c([N+](=O)[O-])c4)c(Oc4cnc5[nH]ccc5c4)c3)CC2)=C(c2ccc(Cl)cc2)C1 + CN1CCN(c2cc(C(=O)Nc3cc4cc(-c5cnn(C)c5)ccc4cn3)ccn2)CC1"
measured_on = "233499-124-R-J3-PDC complex spheroid viability"
class = "active"

[[record]]
compound = "Nc1ccccc1NC(=O)c1ccc(CNC(=O)OCc2cccnc2)cc1 + CNC(=O)c1ccc(Nc2nc(OC3CCCC3)c3c(-c4ccc5nc(C)oc5c4)c[nH]c3n2)c(OC)c1"
measured_on = "233499-124-R-J3-PDC complex spheroid viability"
class = "active"

[[record]]
compound = "CCc1c2c(nc3ccc(O)cc13)-c1cc3c(c(=O)n1C2)COC(=O)[C@]3(O)CC + CNC(=O)c1ccc(Nc2nc(OC3CCCC3)c3c(-c4ccc5nc(C)oc5c4)c[nH]c3n2)c(OC)c1"
measured_on = "233499-124-R-J3-PDC complex spheroid viability"
class = "active"

[[record]]
compound = "CCN1CCN(Cc2ccc(Nc3ncc(F)c(-c4cc(F)c5nc(C)n(C(C)C)c5c4)n3)nc2)CC1 + CNC(=O)c1ccc(Nc2nc(OC3CCCC3)c3c(-c4ccc5nc(C)oc5c4)c[nH]c3n2)c(OC)c1"
measured_on = "233499-124-R-J3-PDC complex spheroid viability"
class = "inactive"

[[record]]
compound = "C=C(F)C(=O)N1CCN(c2nc(OCC3CCCN3C)nc3c2CCN(c2cccc4cccc(Cl)c24)C3)CC1CC#N (stereo not given) + CN1CCN(c2cc(C(=O)Nc3cc4cc(-c5cnn(C)c5)ccc4cn3)ccn2)CC1"
measured_on = "233499-124-R-J3-PDC complex spheroid viability"
class = "active"

[[record]]
compound = "C=C(F)C(=O)N1CCN(c2nc(OCC3CCCN3C)nc3c2CCN(c2cccc4cccc(Cl)c24)C3)CC1CC#N (stereo not given) + CNC(=O)c1ccc(Nc2nc(OC3CCCC3)c3c(-c4ccc5nc(C)oc5c4)c[nH]c3n2)c(OC)c1"
measured_on = "233499-124-R-J3-PDC complex spheroid viability"
class = "inactive"

[[record]]
compound = "COC1C=CCC(C)C(C)S(=O)(=O)NC(=O)c2ccc3c(c2)N(CC2CCC21)CC1(CCCc2cc(Cl)ccc21)CO3 (stereo not given) + CNC(=O)c1ccc(Nc2nc(OC3CCCC3)c3c(-c4ccc5nc(C)oc5c4)c[nH]c3n2)c(OC)c1"
measured_on = "233499-124-R-J3-PDC complex spheroid viability"
class = "inactive"

[[record]]
compound = "O=C(c1cc(Cc2n[nH]c(=O)c3ccccc23)ccc1F)N1CCN(C(=O)C2CC2)CC1 + CNC(=O)c1ccc(Nc2nc(OC3CCCC3)c3c(-c4ccc5nc(C)oc5c4)c[nH]c3n2)c(OC)c1"
measured_on = "233499-124-R-J3-PDC complex spheroid viability"
class = "inactive"

[[record]]
compound = "COC1C=CCC(C)C(C)S(=O)(=O)NC(=O)c2ccc3c(c2)N(CC2CCC21)CC1(CCCc2cc(Cl)ccc21)CO3 (stereo not given) + CN1CCN(c2cc(C(=O)Nc3cc4cc(-c5cnn(C)c5)ccc4cn3)ccn2)CC1"
measured_on = "233499-124-R-J3-PDC complex spheroid viability"
class = "active"

[[record]]
compound = "O=c1[nH]cc(F)c(=O)[nH]1 + CNC(=O)c1ccc(Nc2nc(OC3CCCC3)c3c(-c4ccc5nc(C)oc5c4)c[nH]c3n2)c(OC)c1"
measured_on = "233499-124-R-J3-PDC complex spheroid viability"
class = "inactive"

[[record]]
compound = "CC(=O)O[C@H]1C(=O)[C@@]2(C)[C@H]([C@H](OC(=O)c3ccccc3)[C@]3(O)C[C@H](OC(=O)[C@H](O)[C@@H](NC(=O)c4ccccc4)c4ccccc4)C(C)=C1C3(C)C)[C@]1(OC(C)=O)CO[C@@H]1C[C@@H]2O + CN1CCN(c2cc(C(=O)Nc3cc4cc(-c5cnn(C)c5)ccc4cn3)ccn2)CC1"
measured_on = "233499-124-R-J3-PDC complex spheroid viability"
class = "active"

[[record]]
compound = "COc1c(OCCCN2CCOCC2)ccc2c3n(c(=NC(=O)c4cnc(N)nc4)nc12)CCN3 + CNC(=O)c1ccc(Nc2nc(OC3CCCC3)c3c(-c4ccc5nc(C)oc5c4)c[nH]c3n2)c(OC)c1"
measured_on = "233499-124-R-J3-PDC complex spheroid viability"
class = "active"

[[record]]
compound = "CC(CO)NC(=O)c1cc(-c2ccc(Cl)cc2)nn(-c2cnn(C)c2)c1=O (stereo not given) + CNC(=O)c1ccc(Nc2nc(OC3CCCC3)c3c(-c4ccc5nc(C)oc5c4)c[nH]c3n2)c(OC)c1"
measured_on = "233499-124-R-J3-PDC complex spheroid viability"
class = "inactive"

[[record]]
compound = "C=CC(=O)N1CCN(c2nc(=O)n(-c3c(C)ccnc3C(C)C)c3nc(-c4c(O)cccc4F)c(F)cc23)C(C)C1 (stereo not given) + CN1CCN(c2cc(C(=O)Nc3cc4cc(-c5cnn(C)c5)ccc4cn3)ccn2)CC1"
measured_on = "233499-124-R-J3-PDC complex spheroid viability"
class = "active"

[[record]]
compound = "Nc1ccccc1NC(=O)c1ccc(CNC(=O)OCc2cccnc2)cc1 + CN1CCN(c2cc(C(=O)Nc3cc4cc(-c5cnn(C)c5)ccc4cn3)ccn2)CC1"
measured_on = "233499-124-R-J3-PDC complex spheroid viability"
class = "active"

[[record]]
compound = "CC1COCCN1c1cc(C2(S(C)(=N)=O)CC2)nc(-c2ccnc3[nH]ccc23)n1 (stereo not given) + CN1CCN(c2cc(C(=O)Nc3cc4cc(-c5cnn(C)c5)ccc4cn3)ccn2)CC1"
measured_on = "233499-124-R-J3-PDC complex spheroid viability"
class = "active"

[[record]]
compound = "COc1ccc([C@@H](O)c2cc(-c3ncnc4cc(N5CCOCC5)ccc34)c(F)cc2Cl)nn1 + CN1CCN(c2cc(C(=O)Nc3cc4cc(-c5cnn(C)c5)ccc4cn3)ccn2)CC1"
measured_on = "233499-124-R-J3-PDC complex spheroid viability"
class = "active"

